Measured cell viability, listed per entry for reference.
tested on: U2OS; test: cell viability relative to DMSO; higher = less toxic; settings: 72 h; 100 nM

compound	cell viability [%]
Cc1cccc(COc2cccc(/C=C3\C(=O)NN(c4ccccc4)C3=O)c2)c1 [Y16]	97.9
CC[C@H](C)[C@H](NC(=O)[C@H](Cc1ccc(O)cc1)NC(=O)[C@@H](NC(=O)[C@H](CCCNC(=N)N)NC(=O)[C@@H](N)CC(=O)O)C(C)C)C(=O)N[C@@H](Cc1c[nH]cn1)C(=O)N1CCC[C@H]1C(=O)O [TXA127]	99.1
CN1c2c([nH]c(N)nc2=O)NC[C@@H]1CNc1ccc(C(=O)N[C@@H](CCC(=O)O)C(=O)O)cc1 [metafolin]	92.5
O=P(O)(O)C(O)(Cn1ccnc1)P(=O)(O)O [zoledronic-acid]	100
NC(=O)Nc1sc(-c2ccc(F)cc2)cc1C(N)=O [TPCA-1]	95.9
Clc1ccc(Cn2c(CN3CCCC3)nc3ccccc32)cc1 [clemizole]	98.6
CCNC(=O)N1CCN(CCCC(c2ccc(F)cc2)c2ccc(F)cc2)CC1 [amperozide]	94.4
CCOc1ccc(Cc2cc([C@@H]3O[C@H](SC)[C@@H](O)[C@H](O)[C@H]3O)ccc2Cl)cc1 [sotagliflozin]	100

----------
tested on: Vero E6; assay: cell viability relative to DMSO; higher = less toxic; conditions: 72 h; 10000 nM

compound	cell viability
CC(C)(C)NC(=O)N[C@H](C(=O)N1C[C@H]2[C@@H]([C@H]1C(=O)NC(CC1CCC1)C(=O)C(N)=O)C2(C)C)C(C)(C)C (some centres undefined) [boceprevir]	93.9%
C=C[C@]1(C)C[C@@H](OC(=O)CS[C@@H]2C[C@H]3CC[C@@H](C2)N3C)[C@]2(C)[C@H](C)CC[C@]3(CCC(=O)[C@H]32)[C@@H](C)[C@@H]1O [retapamulin]	91.5%
Nc1nc(=O)n([C@H]2C[C@H](O)[C@@H](CO)O2)cc1F [fdcyd]	54.9%
Nc1[nH]cnc2ncnc1-2 [adenine]	98.2%
Cc1ccc(S(=O)(=O)c2ccc([N+](=O)[O-])o2)cc1	-0.1%
CCc1ccc(Cc2ccc3c(c2)[C@]2(OC3)O[C@H](CO)[C@@H](O)[C@H](O)[C@H]2O)cc1 [tofogliflozin]	98.4%
CCCCC/C=C\C=C\CCCCCCCCC(=O)O [trans-10,cis-12-conjugated-linoleic-acid]	99.1%
CCCC(=O)O[C@]1(C(=O)CCl)[C@@H](C)C[C@H]2[C@@H]3CCC4=CC(=O)C=C[C@]4(C)[C@@]3(F)C(=O)C[C@@]21C [clobetasone-butyrate]	93%
CCCCc1ccc(O)cc1O [rucinol]	103%
Oc1ccc2c3c1O[C@H]1c4[nH]c5ccccc5c4C[C@@]4(O)[C@@H](C2)N(CC2CC2)CC[C@]314 [naltrindole]	92.1%
CC(C)(C)NC(=O)N[C@H](C(=O)N1C[C@H]2[C@@H]([C@H]1C(=O)NC(CC1CCC1)C(=O)C(N)=O)C2(C)C)C(C)(C)C (some centres undefined) [Boceprevir]	99.9%
O=C(O)Cc1ccc(OCCNC[C@H](O)c2ccccc2)cc1 [ZD-2079]	100%
CSc1ccccc1OCC(O)CNC(C)C (centres undefined) [tiprenolol]	86.7%
CCC[C@@H](NC(=O)N1C(=O)C(CC)(CC)[C@@H]1Oc1ccc(C(=O)N2CCN(C)CC2)cc1)c1ccc2c(c1)OCO2 [DMP-777]	96.8%
CC1=C(CC(=O)O)c2cc(F)ccc2/C1=C\c1ccc([S+](C)[O-])cc1 (centres undefined) [sulindac]	94.4%
CS(=O)(=O)c1cccc(CNc2nc(Nc3ccc4c(c3)CCC(=O)N4)ncc2C(F)(F)F)c1	78.8%
C[N+]1(C)CCc2cc3c(cc2[C@H]1[C@@H]1OC(=O)c2c1ccc1c2OCO1)OCO3 [bicuculline-methochloride-(-)]	100%
CC1/C=C/C=C/C=C/C=C/C=C/C=C/C=C/C(OC2O[C@H](C)[C@@H](O)[C@H](N)[C@@H]2O)CC(O)C(C(=O)O)C(O)CC(=O)CC(O)CC(O)CC(O)CC(=O)CCCC(=O)CC(=O)OC1C(C)CC(C)C(O)CC(=O)c1ccc(N)cc1 (some centres undefined) [candicidin]	77.2%
On1ncc(C2CCNCC2)c1-c1cccc(-c2ccccc2)c1 [PHP-501]	111%
CN1c2c([nH]c(N)nc2=O)NC[C@@H]1CNc1ccc(C(=O)N[C@@H](CCC(=O)O)C(=O)O)cc1 [metafolin]	104%
c1cncc(CN2CCC(n3ncc4c(N5CCOCC5)nc(-c5ccc6[nH]ccc6c5)nc43)CC2)c1 [WAY-600]	25.2%
C[C@H](NC(=O)CNC(=O)c1cccc(Cl)c1)c1ccccc1	99.1%
Cc1cccc(NC(=O)c2ccc(C(F)(F)F)cc2C(=O)O)n1	106%
CCC(=O)NCC[C@@H]1CCc2ccc3c(c21)CCO3 [ramelteon]	99.5%
Cc1ccc(S(=O)(=O)NCc2ccccc2)cc1 [BTS]	93.4%
O=c1[nH]c(CCl)nc2sc3c(c12)CCCC3	92.9%
CC(C)OC(=O)c1cc2c(OC[C@@H](O)CNC(C)(C)C)cccc2[nH]1	94.2%
Cn1c(C#N)ccc1-c1ccc2c(c1)C(C)(C)OC(=S)N2 [tanaproget]	107%
CN(C)CCc1c[nH]c2ccc(Cn3cncn3)cc12 [rizatriptan]	98.8%
CCOCc1cc(OC)c(-c2ccc(C[C@H](NC(=O)c3c(F)cccc3F)C(=O)O)cc2)c(OC)c1 [firategrast]	98%
OCCC#Cc1nc(-c2ccc(F)cc2)c(-c2ccncc2)n1CCCc1ccccc1	100%
Cc1nc(-c2ccc(OCC(C)C)c(C#N)c2)sc1C(=O)O [febuxostat]	96.4%
c1ccc(-c2n[nH]cc2-c2ccnc3ccccc23)nc1	104%
Cc1nccc2[nH]c(=O)ccc12 [medorinone]	98.5%
